target: h-GABA-A α5β3γ2 (Homo sapiens, UniProt P18507+P31644)
method_description: Two-electrode voltage clamp electrophysiology in Xenopus laevis oocytes expressing GABAA receptors, modulation of GABA EC20 current
Assay type: cell-based
Set-up: host or cells: Xenopus laevis oocytes micro-injected with RNA transcripts of the subunits
protocol_conditions: test compound at approx. 30 fold its Ki, GABA at EC20; Table 1
Recorded Fold increase h-GABA-A α5β3γ2 oocyte, one value per entry.
readout_kind: Fold increase h-GABA-A α5β3γ2 oocyte

molecule	val
Cc1ccc(-c2noc(C)c2Cn2ncc(-c3cc(C)nc(C)c3)cc2=O)cn1	3.21
Cc1onc(-c2ccc(Cl)nc2)c1Cn1ncc(N2CC3(CC(F)CCO3)C2)cc1=O (single isomer, unassigned)	1.84
COc1ccc(-c2cnn(Cc3c(-c4ccc(C)nc4)noc3C)c(=O)c2)cc1	1.71
Cc1ccc(-c2noc(C)c2Cn2ncc(N3CC[C@@H](C(=O)NC4CC4)C3)cc2=O)cn1	3.47
Cc1cc(-c2noc(C)c2Cn2ncc(N3C[C@@H](C)O[C@@H](C)C3)cc2=O)no1	1.88
Cc1ccc(-c2noc(C)c2Cn2ncc(N3CCN[C@H](C)C3)cc2=O)cn1	2.87
Cc1ccc(-c2noc(C)c2Cn2ncc(N3CC[C@@H](OC(C)(C)C)C3)cc2=O)nn1	1.77
CCOC1CN(c2cnn(Cc3c(-c4ccc(Cl)nc4)noc3C)c(=O)c2Cl)C1	2.35
CNc1cc(-c2cnn(Cc3c(-c4ccc(C)nc4)noc3C)c(=O)c2)ccn1	1.96
COc1ccc(-c2cnn(Cc3c(-c4ccc(C)nc4)noc3C)c(=O)c2)cc1F	2.33
Cc1ccc(-c2noc(C)c2Cn2ncc(N3CC4(CCCO4)C3)cc2=O)nn1	1.8
Cc1onc(-c2ccc(Cl)cn2)c1Cn1ncc(N2C[C@@H](C)O[C@@H](C)C2)cc1=O	1.94
CCOC(=O)C1CCN(c2cnn(Cc3c(-c4ccc(C)nc4)noc3C)c(=O)c2)CC1	2.68
Cc1ncc(-c2noc(C)c2Cn2ncc(N3C[C@@H](C)O[C@@H](C)C3)cc2=O)cc1F	3.53
Cc1ccc(-c2noc(C)c2Cn2ncc(N3CC[C@H](O)C3)cc2=O)cn1	2.45
Cc1ccc(-c2noc(C)c2Cn2ncc(N3CC4(C3)CC(F)(F)CO4)cc2=O)cn1	1.95

====

target: h-GABA-A α5β3γ2 (Homo sapiens, UniProt P18507+P31644)
method_description: [3H]flumazenil competition binding assay, membranes of HEK293 cells expressing GABAA receptors
protocol_conditions: displacement of [3H]-Flumazenil 0.5 nM, HEK293 cells expressing human receptors, mean of two determinations; Table 1
The threshold is 6 nM. Values of Ki beneath it are tagged T; values meeting or exceeding it are tagged F.

compound	assigned_label
Cc1ccc(-c2noc(C)c2Cn2ncc(N3CC4(CCC4)C3)cc2=O)cn1	F
Cc1ccc(-c2noc(C)c2Cn2ncc(N3CC[C@@H](OC(C)(C)C)C3)cc2=O)nn1	T
Cc1ccc(-c2noc(C)c2Cn2ncc(-c3cc(C)nc(C)c3)cc2=O)cn1	F
Cc1ccc(-c2noc(C)c2Cn2ncc(N3CCC(C)(O)CC3)cc2=O)cn1	T
Cc1ccc(-c2noc(C)c2Cn2ncc(N3CC(Oc4ccnc(Cl)c4)C3)cc2=O)nn1	T
Cc1ccc(-c2noc(C)c2Cn2ncc(N3CCN4C(=O)CCC4C3)cc2=O)cn1 (stereo not drawn)	F
Cc1onc(-c2ccc(Cl)cc2)c1Cn1ncc(N2CC3(CCCO3)C2)cc1=O	F
Cc1ccc(-c2noc(C)c2Cn2ncc(-c3cnn(CC(C)C)c3)cc2=O)cn1	F
CCOC1CN(c2cnn(Cc3c(-c4ccc(C)nn4)noc3C)c(=O)c2)C1	T
Cc1ccc(-c2noc(C)c2Cn2ncc(N3CC4(CCCO4)C3)cc2=O)cn1	F
CNc1ccc(-c2cnn(Cc3c(-c4ccc(C)nc4)noc3C)c(=O)c2)cn1	F
CNc1cnn(Cc2c(-c3ccc(C)nc3)noc2C)c(=O)c1	F
Cc1ccc(-c2noc(C)c2Cn2ncc(N3CC4(CC(C)CO4)C3)cc2=O)nn1 (single isomer, unassigned) [Example 241]	T
CCOC1CN(c2cnn(Cc3c(-c4ccc(C)nc4)noc3C)c(=O)c2Cl)C1	F
Cc1ccc(-c2noc(C)c2Cn2ncc(N(C)C)cc2=O)cn1	F
Cc1ccc(-c2noc(C)c2Cn2ncc(-c3ccnc(OC4CCOC4)c3)cc2=O)cn1 (stereo not drawn)	F
Cc1ccc(-c2noc(C)c2Cn2ncc(N3CCN(C(=O)C4CC4)CC3)cc2=O)cn1	F
CCO[C@H]1CN(c2cnn(Cc3c(-c4ccc(Cl)nc4)noc3C)c(=O)c2)[C@H]1C	T
Cc1ccc(-c2noc(C)c2Cn2ncc(N3CCC(n4ccnc4C)CC3)cc2=O)cn1	T
Cc1ccc(-c2noc(C3CC3)c2Cn2ncc(N3CC4(CCCCO4)C3)cc2=O)nn1	F
Cc1onc(-c2ccc(Cl)nc2)c1Cn1ncc(N2CC3(CCCO3)C2)cc1=O	F
Cc1onc(-c2ccc(Cl)nc2)c1Cn1ncc(N2CC3(C[C@H](F)CO3)C2)cc1=O	F
CO[C@H]1COC2(C1)CN(c1cnn(Cc3c(-c4ccc(C)nc4)noc3C)c(=O)c1)C2	F
Cc1ccc(-c2noc(C)c2Cn2ncc(N3CCN(C(=O)C4(C)CC4)CC3)cc2=O)cn1	F
Cc1ccc(-c2noc(C)c2Cn2ncc(-c3ccnc(C(F)(F)F)c3)cc2=O)cn1	F
CNc1cc(-c2cnn(Cc3c(-c4ccc(C)nc4)noc3C)c(=O)c2)ccn1	T
Cc1ccc(-c2noc(C)c2Cn2ncc(N3CC(OC4CC4)C3)cc2=O)cn1	T
Cc1ccc(-c2noc(C)c2Cn2ncc(-c3ccc(C4CC4)nc3)cc2=O)cn1	F
Cc1ccc(-c2noc(C)c2Cn2ncc(N3C[C@@H](C)O[C@@H](C)C3)cc2=O)cn1	T
CO[C@H]1COC2(C1)CN(c1cnn(Cc3c(-c4ccc(C(F)(F)F)nc4)noc3C)c(=O)c1)C2	T
Cc1cc(-c2noc(C)c2Cn2ncc(N3CC(OCC4CC4)C3)cc2=O)no1	F
Cc1ccc(-c2noc(C)c2Cn2ncc(N3CC(Oc4ccccc4F)C3)cc2=O)cn1	F
Cc1ccc(-c2noc(C)c2Cn2ncc(N3C4CCC3COC4)cc2=O)cn1	T

====

target: h-GABA-A α5β3γ2 (Homo sapiens, UniProt P18507+P31644)
method_description: Two-electrode voltage clamp electrophysiology in Xenopus laevis oocytes expressing GABAA receptors, modulation of GABA EC20 current
Format: cell-based
Parameters: host or cells: Xenopus laevis oocytes micro-injected with RNA transcripts of the subunits
protocol_conditions: test compound at approx. 30 fold its Ki, GABA at EC20; Table 1

molecule	Fold increase h-GABA-A α5β3γ2 oocyte
Cc1ccc(-c2noc(CF)c2Cn2ncc(N3CC4(CCCO4)C3)cc2=O)nn1 [Example 295]	1.74
Cc1onc(-c2ccc(Cl)cn2)c1Cn1ncc(N2CC(OCC3CC3)C2)cc1=O [Example 143]	1.68
Cc1ccc(-c2noc(C)c2Cn2ncc(N3CC4(C[C@H](OC(F)F)CO4)C3)cc2=O)cn1 [Example 204]	2.6
COc1cccc(-c2cnn(Cc3c(-c4ccc(C)nc4)noc3C)c(=O)c2)n1 [Example 145]	2.19
COC1CN(c2cnn(Cc3c(-c4ccc(C(F)(F)F)nn4)noc3C)c(=O)c2)C1 [Example 281]	2.05
CCc1onc(-c2ccc(C)nn2)c1Cn1ncc(N2CC3(CCCCO3)C2)cc1=O [Example 324]	2.66
Cc1ccc(-c2noc(C)c2Cn2ncc(N3CCC(C(F)(F)F)CC3)cc2=O)cn1 [Example 24]	3.03
Cc1onc(-c2ncc(Cl)cc2F)c1Cn1ncc(N2C[C@@H](C)O[C@@H](C)C2)cc1=O [Example 52]	2.35
CNc1ccc(-c2cnn(Cc3c(-c4ccc(C)nc4)noc3C)c(=O)c2)cn1 [Example 174]	2.01
Cc1ccc(-c2noc(C)c2Cn2ncc(N3CCO[C@@H](C)C3)cc2=O)cn1 [Example 89]	2.89
Cc1onc(-c2ncc(C(F)(F)F)cn2)c1Cn1ncc(N2CC(OC3CC3)C2)cc1=O [Example 249]	1.6
Cc1ccc(-c2noc(C)c2Cn2ncc(N3CC4(CCCO4)C3)cc2=O)cn1 [Example 95]	2.15
CCn1nccc1C1CCN(c2cnn(Cc3c(-c4ccc(C)nc4)noc3C)c(=O)c2)CC1 [Example 167]	2.95
Cc1ccc(-c2noc(C)c2Cn2ncc(N3CCNC4(CC4)C3)cc2=O)cn1 [Example 74]	2.32
Cc1ccc(-c2noc(C)c2Cn2ncc(-c3ccc4ncc(C)n4c3)cc2=O)cn1 [Example 218]	1.84
Cc1onc(-c2ccc(C3CC3)nc2)c1Cn1ncc(N2CC3(C2)CC(F)(F)CO3)cc1=O [Example 260]	2.23
Cc1onc(-c2ccc(Cl)nc2)c1Cn1ncc(N2CC(OCC(F)(F)F)C2)cc1=O [Example 254]	2.47
CCOC1CN(c2cnn(Cc3c(-c4ccc(Cl)nc4)noc3C)c(=O)c2)C1 [Example 220]	2.18
Cc1ccc(-c2noc(C)c2Cn2ncc(NC3CN(C4CC4)C3)cc2=O)cn1 [Example 96]	2.32
Cc1ccc(-c2noc(C)c2Cn2ncc(N3CC(Oc4ccc(Cl)nc4)C3)cc2=O)cn1 [Example 138]	2.05
Cc1ccc(-c2noc(C)c2Cn2ncc(N3CCC(C)(O)C3)cc2=O)cn1 (stereo not drawn) [Example 118]	3.1
Cc1ccc(-c2noc(C)c2Cn2ncc(N3CCC(O)CC3)cc2=O)cn1 [Example 5]	2.55
Cc1ccc(-c2noc(C)c2Cn2ncc(N3CC4(C[C@@H](OC(F)F)CO4)C3)cc2=O)nn1 [Example 242]	1.8
Cc1onc(-c2ccc(F)cc2)c1Cn1ncc(N2CCC(n3c(C)nnc3C)CC2)cc1=O [Example 55]	1.85
Cc1ccc(-c2noc(C)c2Cn2ncc(N3CC4(CCC(F)CO4)C3)cc2=O)cn1 (single isomer, unassigned) [Example 276]	2.02
Cc1ccc(-c2noc(C)c2Cn2ncc(N3CC(OCC(F)(F)F)C3)cc2=O)cn1 [Example 158]	1.96
Cc1ccc(-c2noc(C)c2Cn2ncc(N3CC(OC(F)F)C3)cc2=O)cn1 [Example 168]	2.4
Cc1ccc(-c2nocc2Cn2ncc(N3CCO[C@@H](C)C3)cc2=O)cn1 [Example 91]	2.57
CO[C@H]1COC2(C1)CN(c1cnn(Cc3c(-c4ccc(C)nc4)noc3C)c(=O)c1)C2 [Example 134]	2.11
Cc1onc(-c2ccc(Cl)nc2)c1Cn1ncc(N2CCC3(CC2)CC(F)CCO3)cc1=O (single isomer, unassigned) [Example 331]	2.59
Cc1ccc(-c2noc(C)c2Cn2ncc(N3CC(Oc4ccc(Cl)cn4)C3)cc2=O)cn1 [Example 130]	2.87
Cc1ccc(-c2noc(C3CC3)c2Cn2ncc(N3CC4(CCCCO4)C3)cc2=O)nn1 [Example 259]	2.93
Cc1ccc(-c2noc(C)c2Cn2ncc(N(C)C)cc2=O)cn1 [Example 45]	2.03
